test: Electrochemical impedance spectroscopy (EIS); format: physicochemical; settings: Example 2
measurement.kind: EIS D (cm^2/s)
Give bare numbers, in cm^2/s.

Would you please look over these solved cases?
C[N+](C)(C)CC(O)C[n+]1ccc(-c2cc[n+](CC(O)CO)cc2)cc1.[Cl-].[Cl-].[Cl-] (stereo not drawn) [Dex-DiOH-Vi] | 5.562E−06
OCC[n+]1ccc(-c2cc[n+](CCO)cc2)cc1.[Cl-].[Cl-] [EtOH-Vi] | 9.868E−06

Each of the following entries comes with a recorded value; kindly state EIS D for each.
1. C[N+](C)(C)CC(O)C[n+]1ccc(-c2cc[n+](CC(O)CS(=O)(=O)[O-])cc2)cc1.[Cl-].[Cl-] (stereo not drawn) [Dex-SHOP-Vi]
2. C[N+](C)(C)CC(O)C[n+]1ccc(-c2cc[n+](CC(O)C[N+](C)(C)C)cc2)cc1 (stereo not drawn) [Dex-Vi]
3. O=S(=O)([O-])CC[n+]1ccc(-c2cc[n+](CCS(=O)(=O)[O-])cc2)cc1 [EtS-Vi]

Result:
1: 4.497E−06; 2: 3.516E−06; 3: 5.2921E−06

For each of the items listed, what is its EIS D?
1. O=S(=O)([O-])CC[n+]1ccc(-c2cc[n+](CC(O)CO)cc2)cc1.[Cl-] (stereo not drawn) [DiOH-EtS-Vi]
2. OCC(O)C[n+]1ccc(-c2cc[n+](CC(O)CO)cc2)cc1.[Cl-].[Cl-] (stereo not drawn) [DiOH-Vi]
3. O=S(=O)([O-])CC(O)C[n+]1ccc(-c2cc[n+](CC(O)CO)cc2)cc1.[Cl-] (stereo not drawn) [DiOH-SHOP-Vi]

Result:
8.134E−06
6.622E−06
5.419E−06

Task: Using known records, supply EIS D for OCCCC[n+]1ccc(-c2cc[n+](CCCCO)cc2)cc1.[Cl-].[Cl-] [ButOH-Vi]
Result: 2.36E−05

----------
assay: Electrochemical impedance spectroscopy (EIS); type: physicochemical; details: Example 2
Given measured EIS i^0, output yes if it is greater than or equal to 0.002 A and no if not.

C[N+](C)(C)CC(O)C[n+]1ccc(-c2cc[n+](CC(O)CO)cc2)cc1.[Cl-].[Cl-].[Cl-] (stereo not drawn) [Dex-DiOH-Vi] | yes

Task: Check this molecule for EIS i^0 at or above 0.002 A: O=S(=O)([O-])CC[n+]1ccc(-c2cc[n+](CCS(=O)(=O)[O-])cc2)cc1 [EtS-Vi]
Result: yes

Task: Exam item: decide whether the reported EIS i^0 for OCCCC[n+]1ccc(-c2cc[n+](CCCCO)cc2)cc1.[Cl-].[Cl-] [ButOH-Vi] is at least 0.002 A.
Result: no

----------
test: Viscosity (rheometer); assay type: physicochemical; settings: 1M, 25° C.
Exercise: state measured Viscosity at 1M, 25° C. for each of the molecules provided.
Reply with a number, then the unit it belongs to.

These solved cases illustrate the format of a correct answer.
C[N+](C)(C)CC(O)C[n+]1ccc(-c2cc[n+](CC(O)C[N+](C)(C)C)cc2)cc1 (stereo not drawn) | 14.2 cP
OCC(O)C[n+]1ccc(-c2cc[n+](CC(O)CO)cc2)cc1.[Cl-].[Cl-] (stereo not drawn) | 3.0 cP
OCC[n+]1ccc(-c2cc[n+](CCO)cc2)cc1.[Cl-].[Cl-] | 2.4 cP
O=S(=O)([O-])CC[n+]1ccc(-c2cc[n+](CC(O)CO)cc2)cc1.[Cl-] (stereo not drawn) | 2.9 cP
OCCCC[n+]1ccc(-c2cc[n+](CCCCO)cc2)cc1.[Cl-].[Cl-] | 1.6 cP

Let's switch to this molecule now.
Task: Identify measured Viscosity at 1M, 25° C. corresponding to C[N+](C)(C)CC(O)C[n+]1ccc(-c2cc[n+](CC(O)CO)cc2)cc1.[Cl-].[Cl-].[Cl-] (stereo not drawn)
Result: 3.9 cP
